Source: patent US20240139289A1

ASSAY SYSTEM: T1, human parathyroid hormone receptor 1 (PTHR1) (human, UniProt Q03431 27-593)
T1 sequence (looked up): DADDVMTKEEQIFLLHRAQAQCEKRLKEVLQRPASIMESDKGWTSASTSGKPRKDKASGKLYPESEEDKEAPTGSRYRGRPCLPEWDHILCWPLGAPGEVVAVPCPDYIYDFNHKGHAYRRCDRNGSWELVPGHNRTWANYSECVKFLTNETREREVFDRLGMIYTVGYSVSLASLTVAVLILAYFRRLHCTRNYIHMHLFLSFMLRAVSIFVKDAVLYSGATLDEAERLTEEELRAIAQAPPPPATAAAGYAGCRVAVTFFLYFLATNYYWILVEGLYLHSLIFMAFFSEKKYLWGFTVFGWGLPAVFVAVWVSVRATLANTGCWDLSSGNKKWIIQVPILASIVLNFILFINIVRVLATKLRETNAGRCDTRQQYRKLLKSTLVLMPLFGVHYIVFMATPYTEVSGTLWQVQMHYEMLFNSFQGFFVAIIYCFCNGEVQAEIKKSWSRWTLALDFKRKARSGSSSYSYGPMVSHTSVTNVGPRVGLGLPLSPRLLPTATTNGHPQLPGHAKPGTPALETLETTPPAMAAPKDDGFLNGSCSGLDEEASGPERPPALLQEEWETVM
TEST SUMMARY: cell-based or functional assay
Ends that are not written are not given here.
READOUT KIND: PTHR1 EC50, calcium mobilization assay in agonist mode (nM)
// units = nM; emit number, no label

Example binders with recorded PTHR1 EC50, calcium mobilization assay in agonist mode:
{"BINDER": "SVSEIQLMHNLGKHLNSMERVEWLRKKLQDVHNFC (C-terminal Cys thiol conjugated through maleimide-PEG ~20,000 Da (~455 units) to VitD-NH2 (25-hydroxy vitamin D, C3 position); C-terminal amide) [EXT617 (PTH-PEG20 kDa-VitD)]", "READING UNIT": "nM", "NUMERIC VALUE": 221}
{"BINDER": "SVSEIQLMHNLGKHLNSMERVEWLRKKLQDVHNFC-NH2 (not fully specified (residue 35); also: acetate salt) [EXT611 (PTH-cys-PEG12-VitD)]", "READING UNIT": "nM", "NUMERIC VALUE": 32.3}

--- query ---
In plain terms, SVSEIQLMHNLGKHLNSMERVEWLRKKLQDVHNFC-NH2 (not fully specified (residue 35); also: acetate salt) [EXT615 (PTH-PEG5 kDa-VitD)] has a documented PTHR1 EC50, calcium mobilization assay in agonist mode of 29.9
